target: Human α2δ-1 subunit of Cav2.2 calcium channel (Homo sapiens); assay: Binding assay to human α2δ-1 subunit of Cav2.2 calcium channel, [3H]-Gabapentin; conditions: human α2δ-1 enriched membranes, 15 nM [3H]-Gabapentin; read-out: Ki (nM) alpha2delta Hum
Sequence (P54289 25-1103): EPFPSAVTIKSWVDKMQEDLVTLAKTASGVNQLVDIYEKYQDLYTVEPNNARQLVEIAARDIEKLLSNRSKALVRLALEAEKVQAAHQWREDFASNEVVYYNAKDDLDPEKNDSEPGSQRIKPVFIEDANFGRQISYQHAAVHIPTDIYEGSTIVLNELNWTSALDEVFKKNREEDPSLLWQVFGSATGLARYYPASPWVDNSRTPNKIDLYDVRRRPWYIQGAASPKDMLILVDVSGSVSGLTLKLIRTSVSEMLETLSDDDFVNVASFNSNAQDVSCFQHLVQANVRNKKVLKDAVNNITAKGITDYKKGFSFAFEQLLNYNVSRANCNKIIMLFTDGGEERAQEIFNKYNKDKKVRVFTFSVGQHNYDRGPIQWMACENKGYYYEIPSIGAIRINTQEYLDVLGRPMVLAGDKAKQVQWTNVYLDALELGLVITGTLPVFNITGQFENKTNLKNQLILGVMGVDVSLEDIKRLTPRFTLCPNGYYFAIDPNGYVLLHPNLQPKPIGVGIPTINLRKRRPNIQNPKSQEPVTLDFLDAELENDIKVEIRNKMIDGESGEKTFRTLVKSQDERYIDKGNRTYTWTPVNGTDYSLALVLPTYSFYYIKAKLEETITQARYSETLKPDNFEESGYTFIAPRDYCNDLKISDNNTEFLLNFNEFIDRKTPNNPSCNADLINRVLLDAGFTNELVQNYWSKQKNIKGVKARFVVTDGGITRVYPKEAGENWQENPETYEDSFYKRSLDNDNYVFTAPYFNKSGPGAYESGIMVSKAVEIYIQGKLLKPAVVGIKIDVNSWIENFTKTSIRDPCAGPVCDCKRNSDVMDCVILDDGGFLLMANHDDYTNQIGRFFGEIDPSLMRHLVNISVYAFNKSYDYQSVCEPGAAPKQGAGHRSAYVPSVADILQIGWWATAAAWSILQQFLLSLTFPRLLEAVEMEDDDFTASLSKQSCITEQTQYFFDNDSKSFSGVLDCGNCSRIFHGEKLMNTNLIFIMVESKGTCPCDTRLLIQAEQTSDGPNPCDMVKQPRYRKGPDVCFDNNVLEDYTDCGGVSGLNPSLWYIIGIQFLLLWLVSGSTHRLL
quantity-kind: Ki

Worked cases, answers included:
[in] State its Ki on Human α2δ-1 subunit of Cav2.2 calcium channel (Homo sapiens): CNCC[C@H](c1cccs1)N1CC(C)(C)c2ncc(Cl)cc21 [Example 110]
[out] 100 to 500 nM

[in] And the next one, CNCCC(c1ccsc1)N1CC(C)(C)c2nc(C)c(F)cc21 (stereo not shown) [Example 71] ?
[out] < 100 nM

[in] And for CNCCC(c1cccs1)N1CCc2c(F)cccc21 (stereo not shown) [Example 67] ?
[out] 500 to 3000 nM

Others:
[in] Form field: Ki recorded for CNCC[C@@H](c1cccs1)N1CCc2c(C#N)cccc21 [Example 112] with Human α2δ-1 subunit of Cav2.2 calcium channel (Homo sapiens) (enter value)
[out] 100 to 500 nM

[in] Same question for CNCC[C@@H](c1cccs1)N1CCc2nc(C(C)C)ccc21 [Example 49] please.
[out] ≥ 3000 nM

[in] // query: CNCCC(c1cccs1)N1CC(C)(C)c2ccc(C#N)cc21 (stereo not shown) [Example 92]
[out] 100 to 500 nM

[in] How about this compound: CCC1(CC)CN(C(CCNC)c2ccsc2)c2cccnc21 (racemic) [Example 86]
[out] 500 to 3000 nM

[in] Quick one: CNCCC(c1cccs1)N1CC(C)(C)c2ncc(F)cc21 (stereo not shown) [Example 66]
[out] 100 to 500 nM

[in] How about this compound: CNCC[C@H](c1ccc(F)s1)N1CCc2ncccc21 [Example 18]
[out] 500 to 3000 nM

[in] Try the compound CNCC[C@H](c1ccsc1)N1CCc2ncccc21 [Example 22]
[out] 500 to 3000 nM

---

Form field: Ki (one value per entry).
biological target: Human α2δ-1 subunit of Cav2.2 calcium channel (Homo sapiens); experiment: Binding assay to human α2δ-1 subunit of Cav2.2 calcium channel, [3H]-Gabapentin; details: human α2δ-1 enriched membranes, 15 nM [3H]-Gabapentin; read-out: Ki (nM) alpha2delta Hum

Would you please look over these solved cases?
[in] Entry CNCCC(c1cccs1)N1CC(C)(C)c2ncc(C#N)cc21 (centres unmarked) : reported Ki = ?
[out] < 100 nM

[in] // repeat for CNCC[C@H](c1cscc1C)N1CCc2ncccc21 and report
[out] ≥ 3000 nM

[in] Entry to check: CNCC[C@H](c1sccc1Cl)N1CCc2ncccc21
[out] ≥ 3000 nM

[in] Try this molecule next: CCNCCC(c1cccs1)N1CCc2ncccc21 (centres unmarked)
[out] 100 to 500 nM

From here, focus on the item given below.
[in] Given the molecule CNCC[C@@H](c1cccs1)N1CC(C)(C)c2ncc(C#N)cc21 , what is its reported Ki?
[out] < 100 nM

---

Biological target: Human norepinephrine transporter (NET) (Homo sapiens)
Sequence (P23975 whole entry): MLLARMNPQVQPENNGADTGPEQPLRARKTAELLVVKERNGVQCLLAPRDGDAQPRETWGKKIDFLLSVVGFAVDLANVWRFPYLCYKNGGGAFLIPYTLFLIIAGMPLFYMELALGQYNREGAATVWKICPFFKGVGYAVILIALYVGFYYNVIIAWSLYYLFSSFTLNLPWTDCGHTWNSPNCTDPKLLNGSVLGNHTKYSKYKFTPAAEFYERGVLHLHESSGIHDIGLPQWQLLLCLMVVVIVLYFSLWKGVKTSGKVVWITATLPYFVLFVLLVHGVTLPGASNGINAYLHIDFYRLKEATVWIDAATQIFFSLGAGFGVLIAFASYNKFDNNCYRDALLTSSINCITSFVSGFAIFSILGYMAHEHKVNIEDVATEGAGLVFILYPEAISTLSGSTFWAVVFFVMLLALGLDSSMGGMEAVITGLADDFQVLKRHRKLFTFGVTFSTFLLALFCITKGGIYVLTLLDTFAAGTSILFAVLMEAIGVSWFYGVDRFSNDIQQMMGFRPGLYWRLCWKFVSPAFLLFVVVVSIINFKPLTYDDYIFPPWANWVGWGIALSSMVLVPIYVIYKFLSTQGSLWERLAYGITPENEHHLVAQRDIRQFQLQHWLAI
Test: Binding assay to human norepinephrine transporter (NET), [3H]-Nisoxetin
Settings: human NET enriched membranes, 5 nM [3H]-Nisoxetin; read-out: Ki (nM) NET Hum
Procedure: Binding Assay to Human Norepinephrine Transporter (NET). Human norepinephrine transporter (NET) enriched membranes (5 μg) were incubated with 5 nM of radiolabeled [3H]-Nisoxetin in assay buffer containing 50 mM Tris-HCl, 120 mM NaCl, 5 mM KCl, pH 7.4. NSB (non specific binding) was measured by adding 1 μM. […] Filter plates were dried at 60° C. for 1 hour and 30 μl of scintillation cocktail were added to each well before radioactivity reading.
Entries and their Ki

[in] Fill blank: measured Ki of the compound CNCCC(c1ccsc1)N1CCc2ncc(C)cc21 (stereo not shown) [Example 14] is ____.
[out] 500 to 1000 nM

[in] Same lookup for CNCC[C@H](c1cccs1)N1c2ccccc2C[C@@H]1C [Example 118] , please.
[out] > 1000 nM

[in] Same lookup for CNCCC(c1cccs1)N1CCc2nc(C)ccc21 (stereo not shown) [Example 11] , please.
[out] 500 to 1000 nM

[in] Next compound: CNCC[C@H](c1cccs1)N1CCc2ncc(OC)cc21 [Example 30]
[out] > 1000 nM

[in] Record: CCc1cnc2c(c1)N([C@H](CCNC)c1ccsc1)CC2 [Example 76]
[out] 100 to 500 nM

New cases:
[in] Data request, read-out Ki, for CNCCC(c1cccs1)N1CCc2ccncc21 (stereo not shown) [Example 2]
[out] > 1000 nM

[in] And the next one, CNCCC(c1cccs1)N1CC(C)(C)c2c(C#N)cccc21 (stereo not shown) [Example 100] ?
[out] > 1000 nM

[in] Another: CNCC[C@@H](c1cccs1)N1CC(C)(C)c2ncc(F)cc21 [Example 105]
[out] > 1000 nM

[in] Proceed to CNCC[C@@H](c1ccc(Cl)s1)N1CCc2ncccc21 [Example 40]
[out] 500 to 1000 nM

[in] Param item: CNCC[C@H](c1ccsc1)N1CC(C)(C)c2nc(C)ccc21 [Example 58]
[out] > 1000 nM

[in] // repeat for CNCC[C@H](c1ccsc1)N1CCc2ncc(F)cc21 [Example 28] and report
[out] 500 to 1000 nM

[in] Note, next up: CNCCC(c1cccs1)N1CC(C)(C)c2ncc(C)cc21 (racemic) [Example 81]
[out] > 1000 nM

[in] Try CNCCC(c1ccsc1)N1CC(C)(C)c2nc(C)c(F)cc21 (stereo not shown) [Example 71] next.
[out] 100 to 500 nM

[in] Consider next the compound CNCC[C@H](c1cccs1)N1CC(C)(C)c2ncc(F)cc21 [Example 106] in the same way.
[out] > 1000 nM

[in] And for CNCC[C@H](c1ccsc1)N1CCc2ncc(C3CC3)cc21 [Example 52] ?
[out] 500 to 1000 nM

[in] Try the compound CNCCC(c1ccsc1)N1CCc2ncccc21 (stereo not shown) [Example 10]
[out] 100 to 500 nM

[in] Another: CNCCC(c1cccs1)N1CC(C)(C)c2nc(C(F)(F)F)ccc21 (stereo not shown) [Example 75]
[out] > 1000 nM

[in] Now the same for CCNCC[C@H](c1ccsc1)N1CCc2ncc(F)cc21 [Example 91]
[out] > 1000 nM

Reference for the values: patent US20200207759A1
